# Tested on: OVCAR-3 ovarian
# test protocol: NCI-60 one-dose screen, 48 h (100 = growth as untreated, 0 = no growth, -100 = all killed)
# test parameters: 10 µM unless noted
The panel holds about 83,000 compounds, 20% with a hit somewhere; the sample as a whole holds those more often.
Threshold 50%: growth strictly smaller gives fulfilled, otherwise not fulfilled.

Please indicate whether the reported growth of c1n[nH]cc1-c1nc2ccc3[nH]ncc3c2c2c1CC1(CCOCC1)CC2 is strictly below 50%. not fulfilled

And the next one, N#Cc1c(-c2ccc(F)cc2)nc(SCc2ccc(F)cc2)nc1N1CCNCC1 ? fulfilled

And the next one, OC1CCC(Cn2c(C(F)(F)F)cc3c(Cl)ncnc32)CC1 (stereo not given) ? fulfilled

And the next one, COc1cc(C2CC(c3cc(OC)c(OC)c(OC)c3)=Nc3c(N)nc(N)nc3N2)ccc1Oc1nc(Nc2ccc(F)cc2)nc(N(C)C)n1 (stereo not given) ? not fulfilled

And the next one, N#Cc1ccc(C(=O)NNC(=O)CSc2nc3sc4c(c3c(=O)n2-c2ccc(Cl)cc2)CCCC4)cc1 ? not fulfilled

---

# System: DU-145 prostate
# test protocol: NCI-60 one-dose screen, 48 h (100 = growth as untreated, 0 = no growth, -100 = all killed)
# test parameters: 10 µM unless noted
This is part of a sample that, as a whole, favours compounds with a hit. Of some 83,000 tested, about 20% had one in any assay.
Labels assigned by growth range: low = under 30%, medium = from 30% up to 80%, high = 80% and over

Could you place COc1cc(CNC(=O)C[C@H](C)CCC=C(C)C)ccc1OCc1cn(-c2ccccc2Cl)nn1 in its proper category? Many thanks. high

And the next one, Cn1cc(-c2cc(N)n3nc(-c4c[nH]c5ccc(F)cc45)cc3n2)c2cccnc21 ? low

And the next one, CN(C)C(=O)c1cc(-c2ccc3ncnc(N4CCc5cc(F)c(Cl)cc54)c3c2)cnc1N ? low

And the next one, CN(C)c1nc(NCCNS(=O)(=O)c2ccc(C(=O)/C=C/c3ccc(F)cc3)cc2)nc(N2CCOCC2)n1 ? medium

And the next one, N#CC1=C(c2ccco2)Nc2c(c(-c3ccccc3)nn2-c2ccccc2)C12C(=O)Nc1ccc(Br)cc12 (configuration not stated) ? medium

And the next one, NCCCCn1c(SCCc2c[nH]c3ccccc23)nnc1-c1ccc2ccccc2n1 ? medium

And the next one, CC[C@]12C=CCN3CC[C@]4(C(=C(C(=O)OC)C1)Nc1cc(OC)c([C@@H]5[C@H]6O[C@H]6[C@@]6(CC)CC(C(=O)OC)=C7Nc8cc(OC)ccc8[C@@]78CCN5[C@@H]68)cc14)[C@@H]32 ? medium

And the next one, C=CC[n+]1cccc2c3ccccc3ccc21 ? medium

And the next one, c1n[nH]cc1-c1nc2ccc3cn[nH]c3c2c2c1CCCC2 ? high

And the next one, CCOC(=O)/C(F)=C/C1CC1CCc1ccc(OCC)cc1 (configuration not stated) ? medium

And the next one, C/C(=N/O)c1ccc(NC(=O)CSc2nnc(-c3ccc(-c4nc5ccc(Cl)cc5[nH]4)cc3)o2)cc1 ? low

And the next one, COC(=O)c1cc(C(=O)C(F)(F)F)n2c3ccccc3c3ccccc3c12 ? high

And the next one, O=C(N/N=C/c1ccoc1)c1[nH]c2ccc(Br)cc2c1-c1ccccc1 ? low

And the next one, O=C1/C(=C/C=C/c2ccco2)SC(=S)N1CC(=S)C1C=CS(=O)(=O)C1 (configuration not stated) ? high

And the next one, OCCn1cc(-c2nc3ccc4[nH]ncc4c3c3c2CCCC3)cn1 ? medium

And the next one, COc1ccc(NC(=O)N/N=C/c2c[nH]c3ccccc23)cc1 ? low

And the next one, Cc1ccc(C2CC(c3ccc(NC(=O)Nc4ccccc4)cc3)=NN2c2ccc(S(N)(=O)=O)cc2)cc1 (configuration not stated) ? low

And the next one, O=c1c(-c2nc(-c3ccccc3)c(-c3ccccc3)[nH]2)coc2ccc(F)cc12 ? medium

And the next one, COc1ccc(/C=C/c2nc3ccccc3n3c(-c4cccc([N+](=O)[O-])c4)nnc23)cc1 ? low

And the next one, Clc1ccc(Nc2nnc(-c3c[nH]c4ccccc34)o2)cc1 ? high

And the next one, Nc1nnc(-c2cncc(Br)c2)c(-c2c[nH]c3ccc(Br)cc23)n1 ? high

And the next one, CS(=O)(=O)Nc1cc(-c2ccc3ncnc(N4CCc5cc(F)c(Cl)cc54)c3c2)cnc1Cl ? low

And the next one, Cc1ccc2c(c1)nc(-c1ccccc1)n2CC(=O)N=Nc1c(O)[nH]c2ccc(Cl)cc12 ? low

And the next one, N#Cc1ccc(C(=O)CSc2nc3c(c(Nc4ccc(S(N)(=O)=O)cc4)n2)CCC3)cc1 ? medium

And the next one, COc1ccc(/C=C/C(=O)c2ccc(OC)c(S(N)(=O)=O)c2)c(C(F)(F)F)c1 ? low

And the next one, CCOC(=O)/C(F)=C/C1CC1C(c1ccccc1)c1ccccc1 (configuration not stated) ? high

And the next one, COc1sc(/C=N/NC(=O)c2[nH]c3ccc(Br)cc3c2-c2ccccc2)cc1Br ? low

And the next one, COc1cccc(-c2ccc(/C=N/NC(=O)c3[nH]c4ccc(Br)cc4c3-c3ccccc3)s2)c1 ? low

And the next one, COc1ccc(C(=O)NNC(=O)CSc2nc3sc4c(c3c(=O)n2-c2ccc(Cl)cc2)CCCC4)cc1 ? high

And the next one, CS(=O)(=O)c1ccc(-n2nc(C(=O)NCc3ccccc3)cc2-c2ccc(Cl)cc2)cc1 ? high

And the next one, COc1cc2cc(C(=O)N3C[C@@H](CCl)c4c3cc(OC(=O)N(C)CCSSCCN3CCOCC3)c3ccccc43)[nH]c2c(OC)c1OC ? low

And the next one, COc1cc(NC(=O)C(C)C)ccc1C(=O)NC(=S)Nc1ccc(S(N)(=O)=O)cc1 ? high

And the next one, O=C(CSc1nc2sc3c(c2c(=O)n1-c1ccc(Cl)cc1)CCCC3)N/N=C/C=C/c1ccccc1 ? low

And the next one, Cc1ccc(C(=O)Nc2cc(-c3ccccc3)cc(C(F)(F)F)c2)cc1C#Cc1cnc2cccnn12 ? high
